# IC50 against Tyrosine-protein kinase JAK3 (Homo sapiens, UniProt P52333), merged from multiple literature sources

Here is how some compounds turned out for IC50.
smi	assaySystem	IC50
C=CC(=O)N1CC[C@@H](Nc2nc(Nc3cnn(CCN(C)C)c3)nc3ccsc23)C1	Tyrosine-protein kinase JAK3 (Homo sapiens, UniProt P52333)	0.01 to 0.1 µM
CCNc1cc2ccc1C(=O)NCCCCCNc1nc(ncc1C)Nc1cc-2cnc1F	Tyrosine-protein kinase JAK3 (Homo sapiens, UniProt P52333)	> 10 µM
CN(c1ncnc2[nH]ccc12)C1CC2(C1)CN(C(=O)c1ccc(Cl)cc1)C2	Tyrosine-protein kinase JAK3 (Homo sapiens, UniProt P52333)	≥ 10 µM

Attention now turns to another entry.
Data request: For the record `CC[C@H](C)n1cc(-c2nc(-c3cnn(C(CO)CO)c3)cn3nccc23)cn1` , what value of IC50 is listed for Tyrosine-protein kinase JAK3 (Homo sapiens, UniProt P52333)?
Data returned: 1 to 10 µM
